Catalogue of molecules with associated TGI
tested on: COLO 205 colon; assay: NCI tumour cell line growth inhibition, 48 h
experimental endpoint: TGI

[[record]]
molecule = "CCCC/C(=C\\C1=C(C)C(=O)C(OC)=C(OC)C1=O)C(=O)O"
assay_result = "> 100 µM"

[[record]]
molecule = "CN(Cc1ccccc1)c1cc(=O)n(C)c(=O)[nH]1"
assay_result = "> 100 µM"

[[record]]
molecule = "O=C(/C(=C\\c1c(-c2ccccc2)[nH]c2ccccc12)S(=O)(=O)c1ccccc1)c1ccccc1"
assay_result = "> 100 µM"

[[record]]
molecule = "CC(C(=O)N1C(=O)N(C(=O)C(C)C(O)c2ccccc2)C2CCCCC21)C(O)c1ccccc1 (stereo not given)"
assay_result = "> 100 µM"

[[record]]
molecule = "Cc1ccc([N+](=O)[O-])cc1N=NC(=O)NNc1cc([N+](=O)[O-])ccc1C"
assay_result = "> 100 µM"

[[record]]
molecule = "NCCNCC1CCNCC1"
assay_result = "> 100 µM"

[[record]]
molecule = "CCC1=NC(C(F)(F)F)(C(F)(F)F)N=C(N2CCOCC2)O1"
assay_result = "> 100 µM"

[[record]]
molecule = "O=C(Cc1ccccc1)NN1C(=O)/C(=C\\c2ccccc2)SC1=Nc1ccccc1"
assay_result = "> 100 µM"

[[record]]
molecule = "CCNC(=O)/C(=C/c1ccc(OC)cc1)c1cc(OC)c(OC)c(OC)c1"
assay_result = "24.8 µM"

[[record]]
molecule = "O=C(CN(c1ccccc1)c1ccccc1)N1c2ccccc2C2C=CC=CC21 (stereo not given)"
assay_result = "24.7 µM"


Origin of the recorded values: PubChem BioAssay (NCI)
